For each of the compounds below, state its MCC mammalian cells Vero E6 ATCC CRL1586.
- Test system: Vero E6 ATCC CRL1586 cells
- assay: Mammalian-cell cytotoxicity, minimal cytotoxic concentration (CellTiter96)
- Assay type: cell-based

• CCc1ccccc1C(=O)NC(Cc1ccccc1)C(=O)Nc1ccccc1C (centres unmarked) [I-123] = >100 µg/mL
• O=C(NC(Cc1ccccc1)C(=O)Nc1cc(F)cc2ncccc12)c1ccccc1 (centres unmarked) [IX-75] = >100 µg/mL
• Cc1ccccc1C(=O)NC(Cc1ccccc1)C(=O)Nc1ccccc1OC(F)F (centres unmarked) [IX-120] = >100 µg/mL
• O=C(NC(Cc1ccc(O)cc1)C(=O)Nc1ccccc1N1CCOCC1)c1cccs1 (centres unmarked) [IX-183] = >100 µg/mL
• O=C(NC(Cc1ccccc1)C(=O)Nc1cccc2ccsc12)c1ccccc1 (centres unmarked) [II-47] = >100 µg/mL
• O=C(NC(Cc1ccccc1)C(=O)Nc1cccc2c1OCCO2)c1ccccc1Cl (centres unmarked) [IX-65] = 18 µg/mL

Dear colleague, could you please provide MCC mammalian cells Vero E6 ATCC CRL1586 for the compounds listed below?
1. O=C(NC(Cc1ccccc1)C(=O)Nc1cc(F)ccc1N1CCNCC1)c1ccccc1Br (centres unmarked) [IX-315]
2. Cc1ccccc1NC(=O)C(Cc1ccccc1)NC(=O)c1cccnc1 (centres unmarked) [II-13]
3. Cn1ncc2c(NC(=O)C(Cc3ccccc3)NC(=O)c3ccccc3)cccc21 (centres unmarked) [IX-225]
4. CCOc1cccc(C(=O)NC(Cc2ccccc2)C(=O)Nc2ccccc2C)c1 (centres unmarked) [I-37]

## Result
1: 12.5 µg/mL; 2: >36 µg/mL; 3: 45 µg/mL; 4: 5 µg/mL

Dear colleague, could you please provide MCC mammalian cells Vero E6 ATCC CRL1586 for the compounds listed below?
1. O=C(NC(Cc1ccccc1)C(=O)Nc1cccc2[nH]ncc12)c1ccccc1F (centres unmarked) [IX-128]
2. Cc1ccc(Cl)cc1NC(=O)C(Cc1ccc(O)cc1)NC(=O)c1cccs1 (centres unmarked) [IX-94]
3. Cc1c(NC(=O)C(Cc2ccccc2)NC(=O)c2ccccc2)cccc1-n1cncn1 (centres unmarked) [I-204]
4. Cc1ccccc1C(=O)NC(Cc1ccccc1)C(=O)Nc1cccc2cnccc12 (centres unmarked) [IX-69]
5. O=C(NC(Cc1ccc(O)cc1)C(=O)Nc1cc(F)ccc1N1CCNCC1)c1ccccc1 (centres unmarked) [IX-246]
6. Cc1ccccc1C(=O)NC(Cc1ccccc1)C(=O)Nc1cc(F)ccc1N1CCNCC1 (centres unmarked) [IX-215]
7. O=C(NC(Cc1ccccc1)C(=O)Nc1ccccc1OC(F)F)c1ccccc1F (centres unmarked) [IX-101]
8. O=C(NC(Cc1ccccc1)C(=O)Nc1cc(F)ccc1OCF)c1ccccc1F (centres unmarked) [IX-177]

## Result
1. 58 µg/mL
2. 58 µg/mL
3. >100 µg/mL
4. >100 µg/mL
5. 34 µg/mL
6. 7 µg/mL
7. >100 µg/mL
8. >100 µg/mL
